Source listed as patent US20220249561A1.

testedOn: T1, ALK 001P
T1 construct: ALK (1-19) is described only as a region comprising a secretory signal, and no cleavage site is stated; Expressed in Expi293 cells and captured on a Protein A chip through its Fc
methodDescription: SPR, Biacore 8K; ALK 001P captured on Protein A chip, ligand as analyte, 6 concentrations from 20 nM

# binder, binding result
data = [
    ("Ligand 009P (ligand) DGHHHHHHGSLQDSEVNQEAKPEVKPEVKPETHINLKVSDGSSEIFFKIKKTTPLRRLMEAFAKRQGKEMDSLTFLYDGIEIQADQTPEDLDMEDNDIIEAHREQIGGLEVLFQGPGPSPEQRVEIVPRDLRMKDKFLKHLTGPLYFSPKCSKHFHRLYHNTRDCTIPAYYKRCARLLTRLAVSPVCMEDKQ", "binds"),
    ("Ligand 016P (ligand) DGHHHHHHGSLQDSEVNQEAKPEVKPEVKPETHINLKVSDGSSEIFFKIKKTTPLRRLMEAFAKRQGKEMDSLTFLYDGIEIQADQTPEDLDMEDNDIIEAHREQIGGLEVLFQGPLRMKDKFLKHLTGPLYFSPKCSKHFHRLYHNTRDCTIPAYYKRCARLLTRLAVSPVCMEDKQ", "binds"),
    ("Ligand 021P (ligand) DGHHHHHHGSLQDSEVNQEAKPEVKPEVKPETHINLKVSDGSSEIFFKIKKTTPLRRLMEAFAKRQGKEMDSLTFLYDGIEIQADQTPEDLDMEDNDIIEAHREQIGGLEVLFQGPLTGPLYFSPKCSKHFHRLYHNTRDCTIPAYYKRCARLLTRLAVSPVCMEDKQ", "binds"),
]
